protocol_description: viability loss in pontine glioma line – cell-based, SU-DIPG-XXV, MIPE5.0, CellTiter-Glo, qHTS, dose response (AID 1347065);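 also: cells exposed to compound for 48 hours before ATP readout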
measurement_setup: CellTiter-Glo ATP luminescence
Inconclusive results are not listed. Active and inactive are the calls of the source. The limit is not given here; nearly all actives have AC50 up to about 26 µM.
endpoint_label: AC50

molecule_smiles=COc1ccc(-c2ccc3c(N4CCOC[C@@H]4C)nc(N4CCOC[C@@H]4C)nc3n2)cc1CO endpoint_label=AC50 reading="105 nM (active)"
molecule_smiles=CCCC(CCC)C(=O)Nc1ccn([C@@H]2O[C@H](CO)[C@@H](O)C2(F)F)c(=O)n1 endpoint_label=AC50 reading=inactive
molecule_smiles=COc1cc(N2CCC(N3CCN(C)CC3)CC2)ccc1Nc1ncc(Cl)c(Nc2ccccc2P(C)(C)=O)n1 endpoint_label=AC50 reading="186 nM (active)"
molecule_smiles=CC(=O)N1CCN(c2ccc(NC(=O)Cc3cnc(-c4ccnc(F)c4)c(C)c3)nc2)CC1 endpoint_label=AC50 reading=inactive

Enquiry: // fetch AC50 given entry COc1ccc(CNc2nc(N(CCO)CCO)nc3c2ncn3C(C)C)cc1
Return: 10500 nM (active)

* * *

protocol_description: JHH-DIPG-1 glioma cell viability, MIPE5.0 library, CellTiter-Glo luminescence, qHTS (AID 1347067);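 also: cells exposed to compound for 48 hours before readout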
measurement_setup: JHH-DIPG-1 glioma viability, CellTiter-Glo ATP luminescence
Inconclusive results are not listed. The source made the active and inactive calls. Cut-off not given; nearly all actives show AC50 up to about 26 µM.
One label from this list, please: active, inactive

compound=C=C1/C(=C\C=C2/CCC[C@]3(C)[C@@H]([C@H](C)/C=C/[C@H](C)C(C)C)CC[C@@H]23)C[C@@H](O)C[C@@H]1O assigned_class=active

Enquiry: For CC(C)(C)Cn1c(N)nc2ccc(-c3[nH]c(C(C)(C)C)nc3-c3ccc(F)cc3)nc21 , what call appears in the results of this test?
Return: active

Enquiry: For Cc1cc(-c2ccc(CC(=O)Nc3ccc(-c4cccnc4)cc3)cc2)ccn1 , what call appears in the results of this test?
Return: inactive

Enquiry: For COc1cc2c(cc1OC)C1CC(=O)C(CC(C)C)CN1CC2 (stereo not given) , what call appears in the results of this test?
Return: inactive

Enquiry: For CN(C)N=Nc1nc[nH]c1C(N)=O , what call appears in the results of this test?
Return: inactive

* * *

The entries below are paired with their reported parasite % of control.
protocol_description: liver-stage malaria parasite load reduction – cell-based, known kinase inhibitor set, luminescence, hepatoma host viability (AID 624392);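 also: infected cells incubated roughly two days before readout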
measurement_setup: Plasmodium liver stage in hepatoma cells, luciferase luminescence, concentration not given here; hits give low values
Use % as the unit, but write only the number.

Recorded parasite % of control, per entry:
compound=COc1cc(C(=O)NC2CCN(C)CC2)ccc1Nc1ncc2c(n1)N(C1CCCC1)CCC(=O)N2C(C)C reading=139
compound="C=CC(=O)Nc1cccc(Nc2nc(NC3CCC(N(C)C)CC3)nc3c2ncn3C(C)C)c1 (centres undefined)" reading=15.4
compound=N#Cc1c(NC(=O)c2cccc3ccccc23)sc2c1CCCC2 reading=217

The record that follows has no parasite % of control shown yet.
Enquiry: // fetch parasite % of control given entry Cc1cccc(-c2[nH]ncc2-c2ccc3ncccc3n2)n1
Return: 87.4

* * *

protocol_description: drug combination growth inhibition, ovarian cancer – cell-based, oncology-focused library, rucaparib conditional, profiling panel (AID 1508598)
measurement_setup: patient-derived ovarian cancer cells, CellTiter-Glo viability, 144 h; at 0.0195 µM; OCI-C5x cells; without rucaparib; hits give low values
endpoint_label: viability (%)
Use % as the unit, but write only the number.

Recorded viability, per entry:
molecule_smiles=CC(=O)Nc1cccc(-n2c(=O)n(C3CC3)c(=O)c3c(Nc4ccc(I)cc4F)n(C)c(=O)c(C)c32)c1 reading=109
molecule_smiles=CN(NC(=O)CC(=O)NN(C)C(=S)c1ccccc1)C(=S)c1ccccc1 reading=131
molecule_smiles=Cn1cc(-c2ccc3nnc(C(F)(F)c4ccc5ncccc5c4)n3n2)cn1 reading=114

Enquiry: // fetch viability given entry Cc1ccc(S(=O)(=O)Nc2nc3ccccc3nc2Nc2ccc3nsnc3c2)cc1
Return: 132

Enquiry: // fetch viability given entry Cc1cc(N2CCOCC2)cc2[nH]c(-c3c(NC[C@@H](O)c4cccc(Cl)c4)cc[nH]c3=O)nc12
Return: 118

Enquiry: // fetch viability given entry COc1cc2nccc(Oc3ccc(NC(=O)C4(C(=O)Nc5ccc(F)cc5)CC4)cc3)c2cc1OC
Return: 122

Enquiry: // fetch viability given entry Nc1nc(Nc2ccc(S(N)(=O)=O)cc2)nn1C(=O)c1c(F)cccc1F
Return: 98.4
